- Measured target: hNTS2R (Homo sapiens)
- Sequence (O95665 whole entry): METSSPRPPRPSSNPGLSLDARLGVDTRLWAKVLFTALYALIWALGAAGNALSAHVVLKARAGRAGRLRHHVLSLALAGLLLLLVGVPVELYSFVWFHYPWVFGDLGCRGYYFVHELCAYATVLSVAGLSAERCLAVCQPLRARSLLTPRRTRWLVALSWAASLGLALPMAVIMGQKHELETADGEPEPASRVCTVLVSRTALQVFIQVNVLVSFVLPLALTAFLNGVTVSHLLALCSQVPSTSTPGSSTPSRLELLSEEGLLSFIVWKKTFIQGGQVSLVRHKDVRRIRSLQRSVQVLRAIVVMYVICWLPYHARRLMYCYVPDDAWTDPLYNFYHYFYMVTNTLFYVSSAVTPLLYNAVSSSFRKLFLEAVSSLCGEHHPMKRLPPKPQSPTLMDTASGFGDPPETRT
- Assay summary: radioligand competition binding with [3H]UR-MK300 at intact HEK293T-hNTS2R cells
- Test context: [3H]UR-MK300 c = 10 nM, read-out: Ki [nM] NTS2R (converted)
Endpoint name: Ki (nM)

Check out these entries, answers already filled in.
{"columns": ["Molecule", "Endpoint name", "Unit name", "Observed measurement"],
 "data": [
  ["CN[C@@H](CCCNC(N)=NC(=O)NCCCCN)C(=O)N[C@@H](CCCNC(=N)N)C(=O)N1CCC[C@H]1C(=O)N[C@@H](C(=O)N[C@H](C(=O)N[C@@H](CC(C)C)C(=O)O)C(C)(C)C)C(C)(C)c1ccc(O)cc1 [Compound 53]", "Ki", "nM", 450],
  ["CN[C@@H](CCCNC(=N)N)C(=O)N[C@@H](CCCNC(N)=NC(=O)NCCCCNC(=O)CN1CCN(CC(=O)O)CCN(CC(=O)O)CCN(CC(=O)O)CC1)C(=O)N1CCC[C@H]1C(=O)N[C@@H](Cc1ccc(O)cc1)C(=O)N[C@H](C(=O)N[C@@H](CC(C)C)C(=O)O)C(C)(C)C [Compound 19]", "Ki", "nM", 73]
]}

I: CN[C@@H](CCCNC(=N)N)C(=O)N[C@@H](CCCNC(=N)NC(=O)NCCCCN)C(=O)N1CCC[C@H]1C(=O)N[C@@H](Cc1ccc(O)cc1)C(=O)N[C@H](C(=O)N[C@@H](CC(C)C)C(=O)O)C(C)(C)C [Compound 8]
II: CN[C@@H](CCCNC(=N)N)C(=O)N[C@@H](CCCNC(=N)N)C(=O)N1CCC[C@H]1C(=O)N[C@@H](Cc1ccc(O)cc1)C(=O)N[C@H](C(=O)N[C@@H](CC(C)C)C(=O)O)C(C)(C)C [Compound 3, reference compound]
Input: Of I and II , which one carries the higher reported Ki? Lab note: record the label of whichever item you select.
Output: I
